- Test system: thyroid hormone receptor (endogenous TRα and TRβ)
- Parameters: species or system GH3-TRE-Luc (rat pituitary); GH3-TRE-Luc luciferase reporter, antagonist mode against 1 nM T3, loss of signal, qHTS
- measurementConditions: read-out: Average AC50 (uM) GH3-TRE-Antag, antagonist mode, 1 nM T3, no GH3 cytotoxicity hit
Structures can show the parent of a compound that is named as a salt.
Under this convention, class 1 denotes AC50 strictly below 40 µM and class 0 denotes AC50 at or above 40 µM.

Consider the worked cases shown below.
[
  {
    "compound": "O=C(c1ccccc1)c1ccc(O)cc1O [2,4-Dihydroxybenzophenone]",
    "systemUnderTest": "thyroid hormone receptor (endogenous TRα and TRβ)",
    "classLabel": "class 0"
  },
  {
    "compound": "N#CC(c1ccc(Cl)cc1)c1c(Cl)cc(-n2ncc(=O)[nH]c2=O)cc1Cl (stereo not drawn) [Diclazuril]",
    "systemUnderTest": "thyroid hormone receptor (endogenous TRα and TRβ)",
    "classLabel": "class 1"
  },
  {
    "compound": "CC/C=C\\C/C=C\\C/C=C\\CCCCCCCC(=O)O [Linolenic acid]",
    "systemUnderTest": "thyroid hormone receptor (endogenous TRα and TRβ)",
    "classLabel": "class 0"
  },
  {
    "compound": "O=C(c1ccc(O)cc1)c1ccc(O)cc1O [2,4,4'-Trihydroxybenzophenone]",
    "systemUnderTest": "thyroid hormone receptor (endogenous TRα and TRβ)",
    "classLabel": "class 0"
  },
  {
    "compound": "Clc1cccc(C(c2ccc3[nH]cnc3c2)n2ccnc2)c1 (stereo not drawn) [Liarozole hydrochloride]",
    "systemUnderTest": "thyroid hormone receptor (endogenous TRα and TRβ)",
    "classLabel": "class 1"
  }
]

# check: AC50 < 40 µM for O=C(N/N=C/c1ccccc1O)c1ccncc1 [Salinazid] class 1

is_below(AC50, 40 µM) for O=C1c2ccccc2-c2n[nH]c3cccc1c23 [SP600125] ? class 1

Record C#C[C@]1(OC(C)=O)CC[C@H]2[C@@H]3CCC4=CC(=O)CC[C@@H]4[C@H]3CC[C@@]21C [Norethindrone acetate] : is its AC50 strictly below 40 µM? class 1

Determine if CC(C)(C)c1ccc2c(S(=O)(=O)O)c(C(C)(C)C)ccc2c1 [Sodium dibunate] shows AC50 strictly lower than 40 µM. class 0

Just wondering, is AC50 of CCCCOC(=O)c1ccc(N)cc1 [Butyl 4-aminobenzoate] below 40 µM? class 1

Answer whether the compound COc1ccc(C(CN(C)C)C2(O)CCCCC2)cc1 (stereo not drawn) [Venlafaxine hydrochloride] has AC50 strictly less than 40 µM class 0

====

- System: thyroid hormone receptor (endogenous TRα and TRβ)
- Set-up: species or system GH3-TRE-Luc (rat pituitary); GH3-TRE-Luc luciferase reporter, antagonist mode against 1 nM T3, loss of signal, qHTS
- measurementConditions: read-out: Average AC50 (uM) GH3-TRE-Antag, antagonist mode, 1 nM T3, no GH3 cytotoxicity hit
Where a name gives a salt, the structure may show the parent alone.
parameter: log10(AC50) (log10 of the value in µM)
Please note: log10 values; quantity AC50; unit µM.

[
  {
    "molecule": "CC(C)(C)c1cccc(C(C)(C)C)c1O",
    "systemUnderTest": "thyroid hormone receptor (endogenous TRα and TRβ)",
    "log10(AC50)": 1.40
  }
]

Could you share which log10(AC50) value was measured for "CNC(=O)c1ccccc1Sc1ccc2c(/C=C/c3ccccn3)n[nH]c2c1" ? -0.11

Report log10(AC50) for "CC(=O)CC/C=C(\C)CC/C=C(\C)CC/C=C(\C)CCC=C(C)C" please. 1.53

Suppose we examine the molecule "CC[C@@H]1/C=C(\C)C[C@H](C)C[C@H](OC)[C@H]2O[C@@](O)(C(=O)C(=O)N3CCCC[C@H]3C(=O)O[C@H](/C(C)=C/[C@@H]3CC[C@H](Cl)[C@H](OC)C3)[C@H](C)[C@@H](O)CC1=O)[C@H](C)C[C@@H]2OC" ; what log10(AC50) value has been reported? 1.20

Consider the molecule shown here: CC(C)OC(=O)OCOP(=O)(CO[C@H](C)Cn1cnc2c(N)ncnc21)OCOC(=O)OC(C)C [Tenofovir disoproxil fumarate] What is its recorded log10(AC50)? 1.40

Form field: reported log10(AC50) of CC/C=C/CCCCCCCCC1CC(=O)OC1=O (stereo not shown) [(Tetrapropenyl)succinic anhydride] 1.82

# lookup: log10(AC50) of COCCCOc1ccnc(C[S+]([O-])c2nc3ccccc3[nH]2)c1C (stereo not shown) [Rabeprazole sodium] 1.71

# query: log10(AC50) of entry "O=C(CCCN1CCC(C(=O)c2ccc(F)cc2)CC1)c1ccc(F)cc1" 1.65

Dear colleague, I am looking for the recorded log10(AC50) of the following molecule: "Cc1cc(-n2c(=O)[nH]c(=O)n(C)c2=O)ccc1Oc1ccc(S(=O)(=O)C(F)(F)F)cc1" 1.71

Fill blank: measured log10(AC50) of the molecule COc1cc([C@@H]2c3cc4c(cc3[C@@H](O[C@@H]3O[C@@H]5CO[C@@H](C)O[C@H]5[C@H](O)[C@H]3O)[C@H]3COC(=O)[C@H]23)OCO4)cc(OC)c1OP(=O)(O)O [Etoposide phosphate] is ____. 1.32

Entry "COc1c(C)c2c(c(O)c1C/C=C(\C)CCC(=O)O)C(=O)OC2" has what log10(AC50)? -0.27

Look at this molecule and give its reported log10(AC50). COc1ccc(CN(CCN(C)C)c2ccccn2)cc1 [Pyrilamine maleate] 1.51

Give the measured log10(AC50) of "CCN(CC)c1ccc(C(=O)c2ccccc2C(=O)O)c(O)c1" . 1.64

Entry "Oc1cc(Cl)cc(Cl)c1Cl" has what log10(AC50)? 1.76

Field request: log10(AC50) | item: "COc1ccc(Nc2ccccc2)c(C)c1" 1.72

I have this molecule here, CCCCCCOc1ccccc1C(N)=O [Exalamide] , and I need its recorded log10(AC50). 1.49

====

Measured AC50 of individual entries
- System: thyroid hormone receptor (endogenous TRα and TRβ)
- Design: species or system GH3-TRE-Luc (rat pituitary); GH3-TRE-Luc luciferase reporter, antagonist mode against 1 nM T3, loss of signal, qHTS
- measurementConditions: read-out: Average AC50 (uM) GH3-TRE-Antag, antagonist mode, 1 nM T3, no GH3 cytotoxicity hit
All answers are understood in µM, so give the number only.

Look at this compound and give its reported AC50. "COC(=O)N[C@H](C(=O)N[C@@H](Cc1ccccc1)[C@@H](O)CN(Cc1ccc(-c2ccccn2)cc1)NC(=O)[C@@H](NC(=O)OC)C(C)(C)C)C(C)(C)C" 19.5

May I ask what AC50 has been recorded for O=C(Nc1ccccc1)c1ccccc1O [Salicylanilide] ? 48.9

====

- Tested on: thyroid hormone receptor (endogenous TRα and TRβ)
- Set-up: species or system GH3-TRE-Luc (rat pituitary); GH3-TRE-Luc luciferase reporter, antagonist mode against 1 nM T3, loss of signal, qHTS
- measurementConditions: read-out: Average AC50 (uM) GH3-TRE-Antag, antagonist mode, 1 nM T3, no GH3 cytotoxicity hit
Counter-ions that a name gives are not always drawn.
parameter: AC50

Solved entries (count: 3):
[
  {
    "molecule": "O=C(O)c1nn(Cc2ccc(Cl)cc2Cl)c2ccccc12",
    "resultValue": "> 50 µM"
  },
  {
    "molecule": "CN(C)[C@@H]1C(O)=C(C(N)=O)C(=O)[C@@]2(O)C(O)=C3C(=O)c4c(O)ccc(Cl)c4[C@@](C)(O)[C@H]3C[C@@H]12 [Chlortetracycline hydrochloride]",
    "resultValue": "> 20 µM"
  },
  {
    "molecule": "Oc1ccccc1/C=N/Cc1ccccc1",
    "resultValue": "> 50 µM"
  }
]

Next up:
Form field: reported AC50 of "CC/C=C\CC/C=C/C(OCC)OCC" 61.1 µM

====

- Test system: thyroid hormone receptor (endogenous TRα and TRβ)
- Parameters: species or system GH3-TRE-Luc (rat pituitary); GH3-TRE-Luc luciferase reporter, antagonist mode against 1 nM T3, loss of signal, qHTS
- measurementConditions: read-out: Average AC50 (uM) GH3-TRE-Antag, antagonist mode, 1 nM T3, no GH3 cytotoxicity hit
parameter: AC50 (µM)
Enter your answer as a number in µM; do not include the unit.

In the examples that follow, each entry is paired with its recorded AC50.
[
  {
    "compound": "CCCCCc1ccc(C)cc1O",
    "resultValue": 23.6
  },
  {
    "compound": "c1ccc(Nc2ccccc2)cc1",
    "resultValue": 83.1
  },
  {
    "compound": "c1ccc2c(c1)[nH]c1cnccc12",
    "resultValue": 45.1
  },
  {
    "compound": "COC(=O)[C@H]1[C@H]2C[C@@H]3c4[nH]c5cc(OC)ccc5c4CCN3C[C@H]2C[C@@H](OC(=O)/C=C/c2cc(OC)c(OC)c(OC)c2)[C@@H]1OC",
    "resultValue": 21
  },
  {
    "compound": "O=C(CCCCCCCCC#CI)Oc1ccccc1 [Phenyl 11-iodo-10-undecynoate]",
    "resultValue": 21.5
  }
]

Can you share its AC50? I mean this compound: CC(C)(C)NCC(O)COc1ccc(NC(=O)NC2CCCCC2)cc1 (stereo not drawn) 26.4

Return reported AC50; argument: "CCCOC(=O)c1ccc(N)cc1" 44.3

I am curious: what AC50 value has been reported for Oc1ccc2c(c1)-c1ccccc1C2 [3-Hydroxyfluorene] ? 91.5

What value of AC50 has been reported for the following compound? CCC(=O)O[C@]1(C(=O)CCl)[C@@H](C)C[C@H]2[C@@H]3C[C@H](F)C4=CC(=O)C=C[C@]4(C)[C@@]3(F)[C@@H](O)C[C@@]21C [Halobetasol propionate] 42.4

Entry "CCCCNC1CC(C)(C)NC(C)(C)C1" has what AC50? 60.2
